Numbers sourced from ChEMBL document CHEMBL3988442.

- System: Wolbachia pipientis
- Test Protocol: Anti-Wolbachia Cell-Based Screen
- Format: functional
- Parameters: scale not given: in the data most compounds retested in dose-response had high values
- Cond: 5 µM
The campaign covered roughly 48,000 compounds. About 13,000 (27%) showed an effect of 50% or more. The list shows a part of the results.
# Lookup of reported Percent Effect keyed by entry
Lab book: enter the figure in %, no units written.

Would you please look over these solved cases?
molecule=O=C([C@H]1CCS(=O)(=O)[C@@H]2CN(Cc3ccc(F)cc3)C[C@H]12)N1CCCC1 observed=-0.8548
molecule="CCC(C)N(Cc1ccc(C)cc1)Cc1c[nH]c(C)n1 (stereo unspecified)" observed=14.09
molecule="CC(Cc1cccc(F)c1)C(=O)NS(=O)(=O)c1ccc2c(c1)OCCO2 (stereo unspecified)" observed=-30.67
molecule=Cc1ccccc1-c1noc(CNc2ccc(F)cc2OCCO)n1 observed=17.52
molecule=COc1ccc(N(Cc2ccco2)C(=O)COC(C)C)cc1F observed=-7.109

Then there is this molecule:
Reported Percent Effect ( CC(=O)NCCCSCCOc1cccc(C#N)c1 ) = -7.407

* * *

# Lookup of reported Percent Effect keyed by entry
- Test system: Wolbachia pipientis
- Test Protocol: Anti-Wolbachia Cell-Based Screen
- Assay type: functional
- Design: scale not given: in the data most compounds retested in dose-response had high values
- Cond: 5 µM
About 13,000 (27%) of roughly 48,000 compounds showed an effect of 50% or more. The list shows a part of the results.
Lab book: enter the figure in %, no units written.

compound="O=C(NC1CCCC1)NC1CCC(C(=O)N2CCSCC2)CC1 (centres undefined)" units_of_measure=% observed=9.425

Then there is this compound:
The compound COCc1ncc(CN2CC(Oc3c(C)cccc3C)C2)cn1 on Wolbachia pipientis: Percent Effect was 2.359

* * *

- Test system: Wolbachia pipientis
- Test Protocol: Anti-Wolbachia Cell-Based Screen
- Assay type: functional
- Design: scale not given: in the data most compounds retested in dose-response had high values
- Cond: 5 µM
Among all 48,000 compounds or so, about 13,000 (27%) showed an effect of 50% or more. The list shows a part of the results.
# Lookup of reported Percent Effect keyed by entry
Lab book: enter the figure in %, no units written.

Would you please look over these solved cases?
molecule=COc1cccn(Cc2nnc(-c3cccc(F)c3)o2)c1=O reported_metric="Percent Effect" observed=-11.98
molecule=Cc1nc2ccc(C(=O)N3CCC(COc4ccccn4)CC3)cc2[nH]1 reported_metric="Percent Effect" observed=160.4
molecule="CCN(CC)C(CNS(=O)(=O)c1ccc(C(=O)NC)cc1)c1ccco1 (stereo not drawn)" reported_metric="Percent Effect" observed=0.6188
molecule="CCCC1(CO)CCCN(C(=O)CNC(N)=O)C1 (stereo not drawn)" reported_metric="Percent Effect" observed=100.2
molecule="c1cnnc(N2CCCC(NCc3ccc(-n4cccn4)cc3)C2)c1 (stereo not drawn)" reported_metric="Percent Effect" observed=-2.089
molecule=FC(F)(F)Sc1ccccc1NCc1nc(C2CC2)no1 reported_metric="Percent Effect" observed=0.6009
molecule=COc1cc(CNC(=O)Nc2nnc(C3CC3)s2)ccc1O reported_metric="Percent Effect" observed=-2.048
molecule="CC(=O)NCC(=O)N1CCCC2(CCC(=O)N(CCc3c[nH]cn3)C2)C1 (stereo not drawn)" reported_metric="Percent Effect" observed=7.336
molecule=O=C(c1cccnc1O)N1CCC(COc2ccccc2)CC1 reported_metric="Percent Effect" observed=-5.095
molecule="CCCc1nnc(NC(=O)NC2CCOc3ccccc32)s1 (stereo not drawn)" reported_metric="Percent Effect" observed=-4.049

Reported Percent Effect ( O=C(NC1CC(=O)N(C2Cc3ccccc3C2)C1)c1cc[n+]([O-])cc1 (stereo not drawn) ) = 5.46

Reported Percent Effect ( CC(=O)N1[C@H](Cn2cncn2)C[C@@H]2CN(c3ncc(F)cn3)CC[C@@H]21.O=C(O)C(F)(F)F ) = -4.782

Reported Percent Effect ( Cn1ccnc1CNC(=O)CCc1cccc(F)c1 ) = 127.3

Reported Percent Effect ( O=C(COc1ccccc1F)NCCC(O)c1ccco1 (stereo not drawn) ) = -8.311

Reported Percent Effect ( CNc1ncc(C(=O)N2CCCC(CO)(CCCOC)C2)cn1 (stereo not drawn) ) = -3.097

Reported Percent Effect ( O=C(c1nc(N2CCCC2)ncc1Cl)N1CCN(Cc2ccsc2)CC1 ) = 11.05
